assay: splicing luciferase reporter signal modulators, primary screen, spliceosome inhibition project, cell-based, HEK293, splice +/- reporter (AID 1101); conditions: luminescence, 24 h, higher = more signal, called active from +8 up or from −8 down;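 further: HEK293 cells carrying a splicing-competent luciferase reporter gene; test concentration not given here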
# z-score >= -0.3 gives criterion met, anything below gives criterion not met

[
  {
    "Compound": "COCCOC(=O)N1C(=O)[C@@]2(c3cc(C#CCNC(N)=O)ccc31)[C@H](c1ccc(OCCO)cc1)N1[C@H](c3ccccc3)[C@H](c3ccccc3)OC(=O)[C@H]1[C@@H]2C(N)=O",
    "Assigned label": "criterion met"
  },
  {
    "Compound": "CS(=O)(=O)CCOC(=O)C1=CC(CCCO)=CC(C2CC2)N(Cc2cccc(OC(F)(F)F)c2)C=C1C(=O)OCCS(C)(=O)=O (stereo not drawn)",
    "Assigned label": "criterion met"
  },
  {
    "Compound": "COc1cc2c(cc1O)C(c1cccs1)N(Cc1sc3ccccc3c1Cl)CC2 (stereo not drawn)",
    "Assigned label": "criterion not met"
  },
  {
    "Compound": "CCCC=C(CCC)[C@@H](NC(=O)CCc1ccccc1)c1ccc(C(F)(F)F)cc1",
    "Assigned label": "criterion not met"
  },
  {
    "Compound": "COCCOC(=O)N1C(=O)[C@@]2(c3cc(C#CC4=CCCCC4)ccc31)[C@H](C(=O)N1CCCCCCC1)[C@H]1C(=O)O[C@H](c3ccccc3)[C@H](c3ccccc3)N1[C@@H]2c1ccc(OCCO)cc1",
    "Assigned label": "criterion not met"
  },
  {
    "Compound": "O=C(CS)NCCCCCNC(=O)[C@@H]1C[C@@H]2C(=O)N[C@@H](Cc3ccccc3)C(=O)N2[C@@H]1c1cccc(OCCO)c1",
    "Assigned label": "criterion not met"
  },
  {
    "Compound": "COCCOC(=O)N1C(=O)[C@@]2(c3cc(C#CCCO)ccc31)[C@H](C(N)=O)[C@H]1C(=O)O[C@H](c3ccccc3)[C@H](c3ccccc3)N1[C@@H]2c1ccc(OCCO)cc1",
    "Assigned label": "criterion met"
  },
  {
    "Compound": "O=C(O)[C@H]1C[C@H]2C(=O)N[C@@H](Cc3ccccc3)C(=O)N2[C@H]1c1cccc(OCCO)c1",
    "Assigned label": "criterion met"
  },
  {
    "Compound": "COCCOC(=O)N1C(=O)[C@@]2(c3cc(C#Cc4ccc(OC)cc4)ccc31)[C@H](C(=O)NC[C@H](O)c1ccccc1)[C@H]1C(=O)O[C@H](c3ccccc3)[C@H](c3ccccc3)N1[C@@H]2c1ccc(OCCO)cc1",
    "Assigned label": "criterion not met"
  },
  {
    "Compound": "COC(=O)C1N=C(c2ccc(OCCCO)cc2)N(c2ccccc2)O1 (stereo not drawn)",
    "Assigned label": "criterion met"
  },
  {
    "Compound": "NC(=O)N1C(=O)C2C(C1=O)C1C=C(CCCO)C2C(C2CC2)N1Cc1cccc(OC(F)(F)F)c1 (stereo not drawn)",
    "Assigned label": "criterion met"
  },
  {
    "Compound": "C=CCC(OC(C)=O)[C@@H]1[C@@H](N(Cc2cccc3ccccc23)C(=O)c2cccc3ccccc23)c2cc(OCCCO)ccc2N1C(=O)c1ccc2ccccc2c1 (stereo partly drawn)",
    "Assigned label": "criterion not met"
  },
  {
    "Compound": "C=CCNC(=O)[C@H]1[C@@H]2C(=O)O[C@@H](c3ccccc3)[C@@H](c3ccccc3)N2[C@@H](c2ccc(OCCO)cc2)[C@]12C(=O)N(C(=O)OCCOC)c1ccc(C#Cc3ccc(OC)cc3)cc12",
    "Assigned label": "criterion not met"
  },
  {
    "Compound": "O=C(N1CCOCC1)[C@@]1(CCS(=O)(=O)c2ccccc2)N=C(c2ccc(OCCCO)cc2)O[C@H]1c1ccccc1",
    "Assigned label": "criterion met"
  },
  {
    "Compound": "CCCCC=C[C@@H](NC(=O)c1ccccc1)c1ccccc1",
    "Assigned label": "criterion not met"
  },
  {
    "Compound": "COc1cc(NN2C(C(O)c3cc(OC)c(OC)c(OC)c3)C=CC3C(=O)N(c4ccccc4)C(=O)C32)cc(OC)c1OC (stereo not drawn)",
    "Assigned label": "criterion met"
  },
  {
    "Compound": "Cc1c(NC(=O)/C(C#N)=C/c2ccccc2Cl)c(=O)n(-c2ccccc2)n1C",
    "Assigned label": "criterion not met"
  },
  {
    "Compound": "C=C(CCCC)/C(=C/C[C@H](OC(C)=O)c1ccc(OCCO)cc1)c1cc(C(=O)OC)ccc1OC",
    "Assigned label": "criterion met"
  },
  {
    "Compound": "CN1C(=O)C2C(C1=O)C1C=C(CCCO)C2C(C2CC2)N1Cc1cc2c(cc1Br)OCO2 (stereo not drawn)",
    "Assigned label": "criterion met"
  },
  {
    "Compound": "COCCOC(=O)N1C(=O)[C@@]2(c3ccccc31)[C@H](c1ccc(OCCO)cc1)N1[C@H](c3ccccc3)[C@H](c3ccccc3)OC(=O)[C@H]1[C@@H]2C(=O)N1CCCCCCC1",
    "Assigned label": "criterion not met"
  },
  {
    "Compound": "COC(=O)[C@@]1(Cc2ccccc2)[C@H]2c3cc(C(=O)N(C)C)n(CCn4cc([N+](=O)[O-])nc4C)c3C[C@H]2CN1C(=O)c1ccccc1",
    "Assigned label": "criterion met"
  },
  {
    "Compound": "CCOC(=O)C[C@H]1[C@H](OC(=O)c2cc3ccccc3oc2=O)[C@@H](NC(=O)c2ccc3ccccc3c2)c2cc(OCCCO)ccc2N1C(=O)Cc1ccc(OC)cc1",
    "Assigned label": "criterion met"
  },
  {
    "Compound": "O=C1NC(=O)C2C1C=CC(C(O)c1ccccn1)N2Nc1ccc(Cl)cc1Cl (stereo not drawn)",
    "Assigned label": "criterion met"
  },
  {
    "Compound": "O=C(NCCN1CCOCC1)[C@@H]1c2ccccc2C(=O)N(Cc2ccccc2)[C@H]1c1ccc(CO)cc1",
    "Assigned label": "criterion not met"
  },
  {
    "Compound": "[N-]=[N+]=Nc1ccccc1[C@@H]1OC(c2ccc(OCCCO)cc2)=N[C@]1(Cc1ccccc1)C(=O)NCc1ccccc1",
    "Assigned label": "criterion met"
  },
  {
    "Compound": "COCCOC(=O)N1C(=O)[C@@]2(c3cc(C#CC4=CCCCC4)ccc31)[C@H](c1ccc(O)cc1)N1[C@H](c3ccccc3)[C@H](c3ccccc3)OC(=O)[C@H]1[C@@H]2C(=O)NC[C@H](O)c1ccccc1",
    "Assigned label": "criterion not met"
  },
  {
    "Compound": "C=C(COC)/C(=C/C[C@@H](OC(C)=O)c1ccc(CO)o1)c1cc(C(=O)OC)ccc1OC",
    "Assigned label": "criterion met"
  },
  {
    "Compound": "C=CCC(OC(C)=O)[C@@H]1[C@@H](N(Cc2cc3ccccc3o2)C(=O)c2ccc(-c3ccccc3)cc2)c2cc(OCCCO)ccc2N1C(=O)Cc1ccc(OC)cc1 (stereo partly drawn)",
    "Assigned label": "criterion not met"
  }
]
